I'd be grateful if you could share measured pEC50 for these entries.
# ASSAYED_SYSTEM: Glucose-dependent insulinotropic receptor (Homo sapiens)
# Sequence (Q8TDV5 whole entry): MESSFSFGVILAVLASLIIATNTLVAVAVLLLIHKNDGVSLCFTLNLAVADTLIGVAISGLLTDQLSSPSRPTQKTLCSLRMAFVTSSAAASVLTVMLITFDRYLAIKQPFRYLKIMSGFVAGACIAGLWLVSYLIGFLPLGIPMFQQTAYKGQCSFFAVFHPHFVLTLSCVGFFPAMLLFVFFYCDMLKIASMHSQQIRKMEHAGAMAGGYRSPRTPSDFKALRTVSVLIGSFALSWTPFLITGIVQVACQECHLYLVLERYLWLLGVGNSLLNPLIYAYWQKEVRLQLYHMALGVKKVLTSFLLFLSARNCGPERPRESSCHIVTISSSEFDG
# TEST_METHOD_NOTES: Agonist activity at human GPR119 transfected in HEK293 cells assessed as concentration for 50 % cAMP stimulation of oleylethanolamine
Remember the convention: pEC50 equals -log10 of concentration in molar.

### Prompt Any idea what pEC50 was measured for CC(C)(C)OC(=O)N1[C@@H]2CC[C@H]1C[C@@H](Oc1ncnc(Nc3ccc(S(C)(=O)=O)cc3F)c1[N+](=O)[O-])C2 (stereo in doubt; 14) ?
### Response 8.85

### Prompt Any idea what pEC50 was measured for CC(C)(C)OC(=O)N1[C@@H]2CC[C@H]1C[C@@H](CNc1ncnc(Nc3ccc(S(C)(=O)=O)cc3F)c1[N+](=O)[O-])C2 ?
### Response 8.17

### Prompt Any idea what pEC50 was measured for CC(C)(C)OC(=O)N1[C@@H]2CC[C@H]1C[C@@H](Oc1ncnc(Nc3ccc(S(C)(=O)=O)cc3)c1[N+](=O)[O-])C2 (stereo in doubt; 11) ?
### Response 8.31

### Prompt Any idea what pEC50 was measured for CC(C)(C)OC(=O)N1[C@@H]2CC[C@H]1C[C@@H](Oc1ncnc(Nc3ccc(S(C)(=O)=O)cc3F)c1[N+](=O)[O-])C2 (stereo in doubt; 12) ?
### Response 8.82

### Prompt Any idea what pEC50 was measured for CC(C)(C)OC(=O)N1[C@@H]2CC[C@H]1C[C@H](Nc1ncnc(Nc3ccc(S(C)(=O)=O)cc3F)c1[N+](=O)[O-])C2 ?
### Response 8.82

### Prompt Any idea what pEC50 was measured for CC(C)(C)OC(=O)N1[C@@H]2CC[C@H]1C[C@@H](Oc1ncnc(Nc3ccc(S(C)(=O)=O)cc3)c1[N+](=O)[O-])C2 (stereo in doubt; 13) ?
### Response 7.84

### Prompt Any idea what pEC50 was measured for CC(C)(C)OC(=O)N1[C@@H]2CC[C@H]1C[C@H](Nc1ncnc(Nc3ccc(S(C)(=O)=O)cc3)c1[N+](=O)[O-])C2 ?
### Response 7.94

====

# ASSAYED_SYSTEM: Glucose-dependent insulinotropic receptor (Homo sapiens) (UniProt Q8TDV5)
# Sequence (Q8TDV5 whole entry): as above
# TEST_METHOD_NOTES: Agonist activity at human GPR119 transfected in HEK293 cells assessed as cAMP stimulation relative to maximal effect of oleylethanolamine
# Format: functional, cell-based
MEASURE: Emax (%)
Please respond with the number in % and leave the unit unwritten.

### Prompt Any idea what Emax was measured for CC(C)(C)OC(=O)N1[C@@H]2CC[C@H]1C[C@H](Nc1ncnc(Nc3ccc(S(C)(=O)=O)cc3)c1[N+](=O)[O-])C2 ?
### Response 139

### Prompt Any idea what Emax was measured for CC(C)(C)OC(=O)N1[C@@H]2CC[C@H]1C[C@@H](CNc1ncnc(Nc3ccc(S(C)(=O)=O)cc3)c1[N+](=O)[O-])C2 ?
### Response 41

### Prompt Any idea what Emax was measured for CC(C)(C)OC(=O)N1[C@@H]2CC[C@H]1C[C@@H](Oc1ncnc(Nc3ccc(S(C)(=O)=O)cc3)c1[N+](=O)[O-])C2 (stereo in doubt; 13) ?
### Response 69

### Prompt Any idea what Emax was measured for CC(C)(C)OC(=O)N1[C@@H]2CC[C@H]1C[C@H](Nc1ncnc(Nc3ccc(S(C)(=O)=O)cc3F)c1[N+](=O)[O-])C2 ?
### Response 99

### Prompt Any idea what Emax was measured for CCCCCCCC/C=C\CCCCCCCC(=O)NCCO ?
### Response 100

### Prompt Any idea what Emax was measured for CC(C)(C)OC(=O)N1[C@@H]2CC[C@H]1C[C@@H](Oc1ncnc(Nc3ccc(S(C)(=O)=O)cc3)c1[N+](=O)[O-])C2 (stereo in doubt; 11) ?
### Response 99

====

# ASSAYED_SYSTEM: Glucose-dependent insulinotropic receptor (Homo sapiens) (UniProt Q8TDV5)
# TEST_METHOD_NOTES: Agonist activity at human GPR119 transfected in HEK293 cells assessed as cAMP stimulation relative to maximal effect of oleylethanolamine
# Type: functional, cell-based
MEASURE: Emax (%)
Please respond with the number in % and leave the unit unwritten.

### Prompt Any idea what Emax was measured for CC(C)(C)OC(=O)N1[C@@H]2CC[C@H]1C[C@@H](Oc1ncnc(Nc3ccc(S(C)(=O)=O)cc3F)c1[N+](=O)[O-])C2 (stereo in doubt; 12) ?
### Response 116

### Prompt Any idea what Emax was measured for CC(C)(C)OC(=O)N1[C@@H]2CC[C@H]1C[C@@H](CNc1ncnc(Nc3ccc(S(C)(=O)=O)cc3F)c1[N+](=O)[O-])C2 ?
### Response 53

### Prompt Any idea what Emax was measured for CC(C)(C)OC(=O)N1[C@@H]2CC[C@H]1C[C@@H](Oc1ncnc(Nc3ccc(S(C)(=O)=O)cc3F)c1[N+](=O)[O-])C2 (stereo in doubt; 14) ?
### Response 65

Hello, the source for this data is ChEMBL document CHEMBL2321661, in case you need it.
